- test.name: physchem
- recorded.conditions: polyethylene glycol-550-dimethyl ether, organic solvent or mixture
Where a name gives a salt, the structure may show the parent alone.
Can you tell me solubility for the items I'm about to list?
Numbers only, in µg/mL.

INSERT INTO assay_data (compound, result_type, recorded_number) VALUES
  ('CC1(C)O[C@@H]2C[C@H]3[C@@H]4C[C@H](F)C5=CC(=O)C=C[C@]5(C)[C@@]4(Cl)[C@@H](Cl)C[C@]3(C)[C@]2(C(=O)CCl)O1', 'solubility', 1500),
  ('CN(C)C1C(=O)C(C(N)=O)=C(O)C2(O)C(=O)C3=C(O)c4c(O)cccc4C(C)(O)C3C(O)C12 (stereo not shown) [oxytetracycline hydrochloride]', 'solubility', 340),
  ('CCCCC[C@H](O)/C=C/[C@@H]1[C@@H](C/C=C\CCCC(=O)O)[C@@H](O)C[C@H]1O [PGF2α]', 'solubility', 36000);

Proceeding to the next compound to report its solubility.
Note down solubility recorded for CC(=O)[C@@]12OC(C)(C)O[C@@H]1C[C@H]1[C@@H]3C[C@H](F)C4=CC(=O)C=C[C@]4(C)[C@@]3(F)[C@@H](O)C[C@@]12C 6500
